Tested on: L1210 leukemia ip in BDF1 mice, survival T/C
Test: NCI In Vivo Anticancer Drug Screen. Data for tumor model L1210 Leukemia (intraperitoneal) in B6D2F1 (BDF1) mice
Settings: endpoint: mean survival time; dose: 400.0 mg/kg/injection; schedule: Q01DX001 (ip); vehicle: saline; higher = longer survival
Experimental: The antitumor activity of compounds was measured in mice bearing transplantable tumors. Survival or tumor size were measured and the results are expressed as the measurement made in the treated group (T) divided by the measurement made in the vehicle treated control group (C). The tumor model used in this assay is L1210 Leukemia (intraperitoneal) in B6D2F1 (BDF1) mice
Inconclusive results and toxic doses are left out.
Measurement Kind: T/C

Example entries begin here.
                                   compound  measurement_kind   reported_result
0  O=C(CCCC(=O)N/N=C/c1cc(Br)cc(Br)c1)N/N=C\c1cc(Br)cc(Br)c1               T/C   90 % of control
1                       CON(C)c1nc2ccccc2o1               T/C  100 % of control
2                           CN1CN(C)CN(C)C1               T/C   97 % of control
3       Cc1c(/C=N/NC(N)=S)[nH]c(=O)[nH]c1=O               T/C  109 % of control
4  CC(C)CCCCCCCCOC(=O)c1ccccc1C(=O)OCCCCCCCCC(C)C               T/C  103 % of control

Can you give me T/C for all of these, one by one?
1. C1CSC2(CCC(C3CCC4(CC3)SCCS4)CC2)S1 (stereo not drawn)
2. O=C(O)c1[nH]c2c(=O)[nH]c(=O)[nH]c2c1Br
3. Nc1nc2c(nc(Br)n2C2CC(O)C(CO)O2)c(=O)[nH]1 (stereo not drawn)
4. O=C1CCCC1C(=O)Nc1cccc2ccccc12 (stereo not drawn)

Reply:
93 % of control
100 % of control
98 % of control
97 % of control

Can you give me T/C for all of these, one by one?
1. N#CCC(=O)N1CCCC1
2. O=C1C(O)C23CC=CCC12CC=CC3 (stereo not drawn)
3. CC(C1CCCCC1)C(C#N)C(=O)NC(N)=O (stereo not drawn)

Reply:
["95 % of control", "100 % of control", "90 % of control"]

Ask: Return reported T/C; argument: CCOC(=O)C(OC(=O)c1ccccc1)C(OC(=O)c1ccccc1)C(=O)OCC (stereo not drawn)
Reply: 93 % of control

====

Test system: L1210 leukemia ip in BDF1 mice, survival T/C
Test: NCI In Vivo Anticancer Drug Screen. Data for tumor model L1210 Leukemia (intraperitoneal) in B6D2F1 (BDF1) mice
Conditions: endpoint: mean survival time; dose: 50.0 mg/kg/injection; schedule: Q04DX003 (ip); vehicle: saline with Tween-80; higher = longer survival
Inconclusive results and toxic doses are left out.
Measurement Kind: T/C

Example entries begin here.
                                   molecule   reported_result
0  CCOC(=O)CCCCN(C(=O)OCc1ccccc1)N(C)C(=O)OCc1ccccc1   95 % of control
1            CC(=O)CC(Cl)(C(F)(F)F)C(F)(F)F  100 % of control
2  CCCCNC(C)(C)C(SSSC(C)=O)c1ccco1 (configuration not stated)   96 % of control
3              O=P(c1ccco1)(c1ccco1)c1ccco1   95 % of control
4      CC(=O)Nc1ccc(NC(=O)Nc2cc(C)ccc2C)cc1   89 % of control
5  COC(OC)C1OC(c2ccccc2)OC2COC(c3ccccc3)OC21 (configuration not stated)   92 % of control

Ask: Return reported T/C; argument: Cc1c(C#N)c2n(c1C)CCCC(=O)N2
Reply: 101 % of control
